molecular target: human Factor XIa (Homo sapiens (Human), UniProt P03951)
Sequence (P03951 388-625): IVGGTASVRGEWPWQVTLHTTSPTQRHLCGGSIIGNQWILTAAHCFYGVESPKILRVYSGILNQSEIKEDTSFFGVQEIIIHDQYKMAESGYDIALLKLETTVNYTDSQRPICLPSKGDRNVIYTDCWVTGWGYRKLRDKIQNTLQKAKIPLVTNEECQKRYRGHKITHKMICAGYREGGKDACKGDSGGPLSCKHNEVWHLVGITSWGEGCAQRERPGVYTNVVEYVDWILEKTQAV
Sequence (P03951 19-387 partner): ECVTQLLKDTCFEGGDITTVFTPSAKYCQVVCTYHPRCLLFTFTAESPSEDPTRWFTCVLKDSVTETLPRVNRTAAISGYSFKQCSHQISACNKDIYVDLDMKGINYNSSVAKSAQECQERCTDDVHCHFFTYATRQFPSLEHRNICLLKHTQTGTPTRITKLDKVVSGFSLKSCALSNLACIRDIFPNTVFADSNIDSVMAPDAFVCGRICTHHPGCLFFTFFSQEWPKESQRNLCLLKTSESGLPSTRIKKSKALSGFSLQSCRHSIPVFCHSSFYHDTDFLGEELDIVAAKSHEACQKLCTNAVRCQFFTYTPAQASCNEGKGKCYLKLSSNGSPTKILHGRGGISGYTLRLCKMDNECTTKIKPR
measuredParameter: IC50 (nM)
Give just the number in nM; leave the unit off.

Task: Can you share its IC50? I mean this compound: C[C@]1(O)CC[C@H](CC(C(=O)Nc2ccc(C(=O)O)cc2)c2ccc(-c3c(C(F)F)ccc(Cl)c3F)c[n+]2[O-])CC1 (single isomer, unassigned) [Example 47]
Result: 0.56

Task: Can you check O=C(O)c1ccc(NC(=O)C(CC2CC2C(F)(F)F)c2ccc(-c3c(OC(F)F)ccc(Cl)c3F)c[n+]2[O-])cc1 (single isomer, unassigned) next?
Result: 1.2

Task: Can you check O=C(O)c1ccc(NC(=O)C(CC2CC2F)c2ccc(-c3c(C(F)F)ccc(Cl)c3F)c[n+]2[O-])cc1 (single isomer, unassigned) next?
Result: 3.3

Task: Can you check CC1CC1C[C@@H](C(=O)Nc1ccc(C(=O)O)cc1)c1ccc(-c2c(C(F)F)ccc(Cl)c2F)c[n+]1[O-] (single isomer, unassigned) next?
Result: 0.21

Task: Can you check O=C(O)c1ccc(NC(=O)C(CC2CC2C(F)F)c2ccc(-c3c(C(F)F)ccc(Cl)c3F)c[n+]2[O-])cc1 (single isomer, unassigned) [Example 90] next?
Result: 1.1

Task: Can you check O=C(O)c1ccc(NC(=O)[C@@H](CC2CC2)c2ccc(-c3c(C(F)F)ccc(Cl)c3F)c[n+]2[O-])cc1 (mixture of isomers) next?
Result: 240

====

tested on: Human plasma (intrinsic coagulation cascade); test: Activated Partial Thromboplastin Time (aPTT) Assay; conditions: concentration that causes a 50% (1.5×) increase of clot time over vehicle
Decision: aPTT (1.5x) compared against 2 µM; not below it gives TRUE, below it gives FALSE.

Task: Answer whether aPTT (1.5x) of O=C(O)c1ccc(NC(=O)C(CC2CC2C(F)(F)F)c2ccc(-c3c(C(F)F)ccc(Cl)c3F)c[n+]2[O-])cc1 (single isomer, unassigned) [Example 88] is greater than or equal to 2 µM.
Result: FALSE

Task: Can you check CCOc1ccc(Cl)c(F)c1-c1ccc(C(CC2CC2)C(=O)Nc2ccc(C(=O)O)cc2)[n+]([O-])c1 (single isomer, unassigned) [Example 9] next?
Result: TRUE

Task: Can you check O=C(O)c1ccc(NC(=O)C(CC2CCCC2)c2ccc(-c3c(OC(F)F)ccc(Cl)c3F)c[n+]2[O-])cc1 (single isomer, unassigned) [Example 19] next?
Result: FALSE

Task: Can you check N#CC1(CC(C(=O)Nc2ccc(C(=O)O)cc2)c2ccc(-c3c(C(F)(F)F)ccc(Cl)c3F)c[n+]2[O-])CC1 (racemic) next?
Result: TRUE

Task: Can you check CC1(C)CC1CC(C(=O)Nc1ccc(C(=O)O)cc1)c1ccc(-c2c(OC(F)F)ccc(Cl)c2F)c[n+]1[O-] (single isomer, unassigned) next?
Result: TRUE

Task: Can you check CC1CC1C[C@@H](C(=O)Nc1ccc(C(=O)O)cc1)c1ccc(-c2c(C(F)F)ccc(Cl)c2F)c[n+]1[O-] (single isomer, unassigned) [Example 62] next?
Result: FALSE

====

Test system: Human plasma (intrinsic coagulation cascade)
Assay: Activated Partial Thromboplastin Time (aPTT) Assay
Settings: concentration that causes a 50% (1.5×) increase of clot time over vehicle
Description: Activated partial thromboplastin time (aPTT) is a clotting test that measures the intrinsic coagulation cascade. The test is performed in sodium citrated plasma. Human plasma is made by collecting blood from healthy donors of both genders into Na citrate tubes (Sarstedt coagulation 9NC/10 ml). […] In general, the analyzer performs the following steps: Factor XII is activated by addition of ellagic acid (Pacific Hemostasis), and then time to clot is measured after re-calcification of the sample. […]
measuredParameter: aPTT (1.5x) (µM)
Give just the number in µM; leave the unit off.

Task: Can you share its aPTT (1.5x)? I mean this compound: C[C@]1(O)CC[C@@H](CC(C(=O)Nc2ccc(C(=O)O)cc2)c2ccc(-c3c(C(F)F)ccc(Cl)c3F)c[n+]2[O-])CC1 (single isomer, unassigned) [Example 45]
Result: 1.16

Task: Can you check O=C(O)c1ccc(NC(=O)C(CC2CC2)c2ccc(-c3cc(Cl)ccc3OC(F)F)c[n+]2[O-])cc1 (single isomer, unassigned) [Example 7] next?
Result: 16.38
